- testedOn: SMARCA2 (Homo sapiens, UniProt P51531)
- Sequence (P51531 whole entry): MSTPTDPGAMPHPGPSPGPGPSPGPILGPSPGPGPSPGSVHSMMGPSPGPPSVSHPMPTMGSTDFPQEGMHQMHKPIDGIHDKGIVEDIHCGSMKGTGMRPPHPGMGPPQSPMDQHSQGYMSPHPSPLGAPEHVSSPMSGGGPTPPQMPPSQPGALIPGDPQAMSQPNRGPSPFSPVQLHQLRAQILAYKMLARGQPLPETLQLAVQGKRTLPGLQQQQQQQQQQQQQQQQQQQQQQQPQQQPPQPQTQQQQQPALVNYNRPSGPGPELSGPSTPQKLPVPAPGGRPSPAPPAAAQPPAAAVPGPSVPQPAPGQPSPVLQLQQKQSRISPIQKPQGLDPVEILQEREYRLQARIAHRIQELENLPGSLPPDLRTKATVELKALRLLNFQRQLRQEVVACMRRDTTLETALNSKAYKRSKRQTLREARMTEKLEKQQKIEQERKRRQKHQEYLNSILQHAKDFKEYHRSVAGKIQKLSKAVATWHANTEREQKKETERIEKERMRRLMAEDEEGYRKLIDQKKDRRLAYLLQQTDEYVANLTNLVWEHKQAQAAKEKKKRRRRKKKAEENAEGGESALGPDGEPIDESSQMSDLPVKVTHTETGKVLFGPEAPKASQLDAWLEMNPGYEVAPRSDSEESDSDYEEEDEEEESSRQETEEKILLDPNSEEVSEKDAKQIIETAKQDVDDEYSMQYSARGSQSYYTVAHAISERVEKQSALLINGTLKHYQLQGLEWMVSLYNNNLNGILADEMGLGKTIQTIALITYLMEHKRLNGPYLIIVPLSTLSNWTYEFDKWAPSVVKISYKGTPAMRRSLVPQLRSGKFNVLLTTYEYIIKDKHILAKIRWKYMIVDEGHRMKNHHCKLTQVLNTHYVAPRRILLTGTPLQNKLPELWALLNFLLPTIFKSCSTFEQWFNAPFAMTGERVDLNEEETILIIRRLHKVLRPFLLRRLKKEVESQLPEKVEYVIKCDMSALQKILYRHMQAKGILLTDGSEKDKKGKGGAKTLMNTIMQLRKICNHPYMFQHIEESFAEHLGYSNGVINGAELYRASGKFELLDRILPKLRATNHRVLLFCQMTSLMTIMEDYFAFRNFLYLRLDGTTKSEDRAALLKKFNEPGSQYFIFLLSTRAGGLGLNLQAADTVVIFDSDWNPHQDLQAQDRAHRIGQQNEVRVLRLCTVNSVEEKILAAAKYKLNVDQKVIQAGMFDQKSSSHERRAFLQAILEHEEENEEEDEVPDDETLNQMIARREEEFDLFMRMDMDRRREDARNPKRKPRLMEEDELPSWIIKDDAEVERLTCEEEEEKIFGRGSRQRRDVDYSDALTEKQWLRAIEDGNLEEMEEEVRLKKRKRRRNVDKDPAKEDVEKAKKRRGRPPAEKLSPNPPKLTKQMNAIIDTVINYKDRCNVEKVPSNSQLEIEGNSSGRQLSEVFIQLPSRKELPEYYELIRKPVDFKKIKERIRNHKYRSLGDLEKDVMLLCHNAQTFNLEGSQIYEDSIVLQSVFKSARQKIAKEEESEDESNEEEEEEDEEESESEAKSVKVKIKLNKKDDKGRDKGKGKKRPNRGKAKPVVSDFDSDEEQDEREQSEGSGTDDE
- protocolSummary: SMARCA2 degradation in H929 cells by Western blot
- Format: cell-based
- Set-up: endogenous in cells
- condition: 16 hours
SMARCA2 Percent degradation @ 100 nM values for the compounds below.

compound	outputUnit	SMARCA2 Percent degradation @ 100 nM
Cc1ncsc1-c1ccc([C@H](C)NC(=O)[C@@H]2C[C@@H](O)CN2C(=O)[C@@H](NC(=O)CCCCCCCCC(=O)N2CCN(c3cc(-c4ccccc4O)nnc3N)CC2)C(C)(C)C)cc1	%	100
Cc1ncsc1-c1ccc([C@H](C)NC(=O)[C@@H]2C[C@@H](O)CN2C(=O)[C@@H](NC(=O)CN2CCN(c3cc(-c4ccccc4O)nnc3N)CC2)C(C)(C)C)cc1	%	100
Cc1ncsc1-c1ccc([C@H](C)NC(=O)[C@@H]2C[C@@H](O)CN2C(=O)[C@@H](NC(=O)CN2CCN(c3cc(-c4ccccc4O)nnc3N)CC2)C(C)C)cc1	%	99
Cc1ncsc1-c1ccc([C@H](C)NC(=O)[C@@H]2C[C@@H](O)CN2C(=O)[C@@H](NC(=O)C(C)N2CCN(c3cc(-c4ccccc4O)nnc3N)CC2)C(C)(C)C)cc1 (stereo partly shown) [Compound 56]	%	99

Origin of measurements: patent US12371426B2
